Attribution: ChEMBL document CHEMBL5303304

System: U2OS
Test: Incucyte cell viability with U2OS; further: unitless GR value; below 1 slowed growth and below 0 cell loss
Format: toxicity, cell-based
Details: human, 6 h, 10 µM, compound concentration 10 uM, replicate number 1
Reported Growth Rate is given for each of the following compounds.

Sample records with Growth Rate:
CC(C)(C)c1cnc(CSc2cnc(NC(=O)C3CCNCC3)s2)o1 [BMS-387032]
0.69
COc1ccc(NC(=O)[C@@H]2C[C@H](C)CC[C@H]2C(C)C)cc1 [ACOLTREMON]
-0.13
CS(=O)(=O)NC(=O)CCC/C=C\C[C@H]1C(=O)C[C@@H](O)[C@@H]1/C=C/[C@@H](O)COc1ccccc1 [SULPROSTONE]
0.89

Ask: // output Growth Rate; input CC(=O)O.NCCCc1c(C(=O)O)[nH]c2ccc(C(=O)Nc3ccccc3)cc12 ; system U2OS
Reply: 0.76

Ask: // output Growth Rate; input C[C@@H]1C[C@H](C)CN(c2ncc(Cl)c(Nc3ccc4c(c3)cc(OC(C)(C)C(=O)O)c(=O)n4C)n2)C1 ; system U2OS
Reply: 0.72

Ask: // output Growth Rate; input O=C1CN(c2ccccc2F)C(NCCN2CCOCC2)=C1c1nc2cc(Br)ccc2c(=O)[nH]1 ; system U2OS
Reply: 0.56

Ask: // output Growth Rate; input NC1(c2ccc(-c3nc4c(O)ccnn4c3-c3ccccc3)cc2)CCC1 ; system U2OS
Reply: 0.34

----------
Tested on: U2OS
Experiment: Incucyte cell viability with U2OS; further: unitless GR value; below 1 slowed growth and below 0 cell loss
Assay type: toxicity, cell-based
Conditions: human, 24 h, 10 µM, compound concentration 10 uM, replicate number 1
Measurement label: Growth Rate
Just the number, please, no unit after it.

Sample records with Growth Rate:
COc1cc(/C=C(\C#N)C(=O)Nc2nnc(C(F)(F)F)s2)ccc1OCc1ccc(C(F)(F)F)cc1C(F)(F)F
0.97
CN(C)C(=O)Cn1cc(-c2ccc(-c3nnc4ccccn34)cc2)cn1
0.67
Cn1c(=O)n(CCCO)c(=O)c2c1nc(Oc1cccc(Cl)c1)n2Cc1ccc(Cl)cc1
0.94

Ask: Look up Growth Rate of Cc1[nH]nc2ccc(-c3cncc(OCC(N)Cc4c[nH]c5ccccc45)c3)cc12 (centres undefined) and report it.
Reply: 0.09

----------
System: HEK-293T
Experiment: Incucyte cell viability with HEK293T; further: unitless GR value; below 1 slowed growth and below 0 cell loss
Assay type: toxicity, cell-based
Settings: human, 24 h, 10 µM, compound concentration 10 uM, replicate number 2
Returns: string. Value is 1 if measured Growth Rate is below 0.7, and 0 if it is greater than or equal to it.

Some entries whose results are on file:
Cc1[nH]nc(C(F)(F)F)c1Cc1sc2c(c1C(=O)N1C[C@](C)(O)CO1)c(=O)n(C)c(=O)n2C(C)C [AZD3965]
1
Fc1ccc(-c2nc(-c3ccc4ccccc4c3F)[nH]c2-c2ccncc2)cc1
1
CCCCC/C=C/C=C1/C(=O)C=C[C@@H]1C/C=C\CCCC(=O)O
0
Cc1ccc2c(N)c(C(=O)NC3CCc4cc(N5CC6CCC(C5)N6)ccc4C3)sc2n1.O=CO (centres undefined)
1
Cc1cc(C)cc(C(=O)NOCCCCCC(=O)NO)c1
1
CC(C)(O)[C@H]1CC[C@H](Nc2ccc3ncc(-c4cccc(C(F)(F)F)c4)n3n2)CC1 [NUVISERTIB]
1
Cc1cn([C@@H](C)CC#N)c(=O)c2cc(Cn3nc(C(F)F)cc3Cl)nn12
0
Cc1c(NC(=O)c2ccc(C(C)(C)C)cc2)cccc1-c1cn(C)c(=O)c(Nc2ccc(C(=O)N3CCOCC3)cc2)n1
1

Ask: Dear reviewer, please state whether COc1cc(-c2cc3ncccc3c(OC[C@H]3CNC(=O)C3)n2)cc(OC)c1OC1CCOCC1.O=C(O)C(F)(F)F has Growth Rate strictly beneath 0.7.
Reply: 1

Ask: Dear reviewer, please state whether CCOC(=O)c1ncn2c1[C@@H]1CCCN1C(=O)c1cc(OC)ccc1-2 has Growth Rate strictly beneath 0.7.
Reply: 0

Ask: Dear reviewer, please state whether CCCCc1c(-c2ccccc2)nc(N)nc1-c1ccc(OCc2ccccc2)c(F)c1F has Growth Rate strictly beneath 0.7.
Reply: 0

Ask: Dear reviewer, please state whether CCn1c(-c2ccncc2)cc2c1CCNC2=O has Growth Rate strictly beneath 0.7.
Reply: 1

Ask: Dear reviewer, please state whether Cc1c(CN2CCC3(CC2)CN(c2ncnc4sc(CC(F)(F)F)cc24)C3)ccc2c1cc(C#N)n2CC(N)=O has Growth Rate strictly beneath 0.7.
Reply: 1

----------
System: U2OS
Assay: Incucyte cell viability with U2OS; further: unitless GR value; below 1 slowed growth and below 0 cell loss
Type: toxicity, cell-based
Conditions: human, 24 h, 10 µM, compound concentration 10 uM, replicate number 1
Give Criterion met when the value for Growth Rate is at least 0.8. Give Criterion not met when it is less.

Some entries whose results are on file:
CC(C)c1cnc(NC(=O)Cc2ccccc2)s1
Criterion met
Cn1cc(C(=O)O)c2ccc(N3CCC(OCc4c(-c5c(Cl)cccc5Cl)noc4C4CC4)CC3)cc21 [TERN-101]
Criterion met
COC(=O)c1ccc2c(c1)NC(=O)/C2=C(\Nc1ccc(-c2nccn2C)cc1)c1ccccc1
Criterion not met
O=C1CCCc2[nH]c(-c3ccnc(NCC4CC4)c3)c(Nc3ccccc3)c21
Criterion not met
C[C@@H](CN1CCC(Cc2ccccc2)CC1)[C@@H](O)c1ccc(O)cc1
Criterion met

Ask: // inclusive: Growth Rate at least 0.8? input: CCN(C(=O)c1cc(F)ccc1Oc1cncnc1N1CC2(CCN(C[C@H]3CC[C@H](NS(=O)(=O)CC)CC3)CC2)C1)C(C)C [REVUMENIB]
Reply: Criterion not met

Ask: // inclusive: Growth Rate at least 0.8? input: CN(C)C(=O)Cn1cc(-c2nc([C@@](C)(c3ccc(-c4cnc(N)nc4)cc3)C3CC3)no2)cn1 [BI 665915]
Reply: Criterion met

----------
Tested on: Fibroblast
Assay: Incucyte cell viability with human fibroblast; further: unitless GR value; below 1 slowed growth and below 0 cell loss
Format: toxicity, cell-based
Conditions: 6 h, 10 µM, compound concentration 10 uM, replicate number 2
Class membership depends on Growth Rate alone; the intervals are A (below -0.8), B (-0.8 to below 0.1), C (0.1 or more)

Some entries whose results are on file:
N#C/C(=C\c1ccc(O)c(O)c1)C(=O)OCCc1cccs1
B
CN1C(=O)Cc2ccc(-c3ccc(C[C@@H](C#N)NC(=O)[C@H]4N[C@@H]5CC[C@H]4C5)c(F)c3)cc21
B

Ask: Which class is correct for the following compound? Cn1nccc1-c1ccc(Sc2cccc(C3(C(N)=O)CCOCC3)c2)cc1
Reply: C

Ask: Which class is correct for the following compound? CC#CC(=O)N1CCN(c2nc(-c3ccc(Oc4ccccc4)cc3)c(C(N)=O)s2)CC1
Reply: C

Ask: Which class is correct for the following compound? CC1CNCCc2c1nc1ccnn1c2N1CC(C(=O)N2CCC(C)(C)C2)C1 (centres undefined)
Reply: B

Ask: Which class is correct for the following compound? c1ccc2c(c1)SCc1c-2[nH]c2ccccc12
Reply: A

----------
Reported Growth Rate is given for each of the following molecules.
Test system: U2OS
Test: Incucyte cell viability with U2OS; further: unitless GR value; below 1 slowed growth and below 0 cell loss
Format: toxicity, cell-based
Conditions: human, 24 h, 10 µM, compound concentration 10 uM, replicate number 2
Just the number, please, no unit after it.

Sample records with Growth Rate:
Cc1cccc(-c2nn(C(=S)Nc3ccccc3)cc2-c2ccnc3ccccc23)n1
0.88
Cc1cc(Nc2cc(N)ncn2)c(=O)n2c1C(=O)NC21CCCCC1 [TOMIVOSERTIB]
0.85
COc1ccc(-c2cc3c(C)nc(N)nc3n([C@H]3CC[C@H](OCCO)CC3)c2=O)cn1 [PF-04691502]
0.62

Ask: Look up Growth Rate of Cc1c(-c2cc(-c3ccccc3Cl)no2)cnn1C1CCNCC1.Cl and report it.
Reply: 0.75

Ask: Look up Growth Rate of CC[C@@H]1C(=O)N(C)c2cnc(Nc3ccc(C(=O)NC4CCN(C)CC4)cc3OC)nc2N1C1CCCC1 [BI-2536] and report it.
Reply: 0.3

Ask: Look up Growth Rate of CS(=O)(=O)c1ccc(-c2cnc(N)c(C(=O)Nc3ccccc3)n2)cc1 and report it.
Reply: 0.77

Ask: Look up Growth Rate of O=C1CSC(=O)N1C(CCc1ccncc1)COc1ccc(-c2cccc([N+](=O)[O-])c2)cc1 (stereo not given) and report it.
Reply: 1

----------
Tested on: U2OS
Assay: Incucyte cell viability with U2OS; further: unitless GR value; below 1 slowed growth and below 0 cell loss
Type: toxicity, cell-based
Conditions: human, 24 h, 10 µM, compound concentration 10 uM, replicate number 2
Reported Growth Rate is given for each of the following compounds.
Just the number, please, no unit after it.

CN(C)Cc1cccc(NC(=C2C(=O)Nc3cc(C(=O)N(C)C)ccc32)c2ccccc2)c1
0.8
CCN(C)S(=O)(=O)Nc1cccc(-c2ccc3c(NC(=O)C4CC4)n[nH]c3c2)c1
0.17
CCN1CCN(Cc2ccc(NC(=O)c3ccc(C)c(NC(=O)c4cncc(-c5cccs5)c4)c3)cc2C(F)(F)F)CC1
-0.55

Ask: Look up Growth Rate of CC[C@@H](C(=O)OC)n1c(=O)c2ccccc2n(Cc2cn(C)c3cccc(C)c23)c1=O and report it.
Reply: 0.9

Ask: Look up Growth Rate of Cc1c(C(=O)Nc2cccc(C(F)(F)F)c2)cc(-c2ccccc2)n1CCCN1CCOCC1.Cl and report it.
Reply: 0.95

Ask: Look up Growth Rate of Cc1ccc(NC(=O)c2ccc3cnccc3c2)cc1C(=O)Nc1cnc(Nc2cccc(NC3CCN(C(=O)/C=C/CN(C)C)CC3)c2)nc1 and report it.
Reply: 0.46

Ask: Look up Growth Rate of Cl.Clc1cc2cc(c1)-c1cnn3ccc(nc13)NCCOCCO2 and report it.
Reply: 0.92

Ask: Look up Growth Rate of CC[C@H](C(=O)Nc1ccccc1N1CCCC1)c1ccccc1 and report it.
Reply: 0.84
